Exercise: state measured activity at 10 µM for each of the compounds provided.
# Tested on: HBV viral production in AD38 cells
# TEST METHOD NOTES: Viral load production in AD38 cells by quantitative PCR of the HBV core sequence in supernatant
# Type: cell-based
# STUDY CONDITIONS: Hepatitis B virus, 144 h; 10 μM compound, 6 days at 37° C., viral load in supernatant compared against DMSO control wells; read-out: AD38 Viral Load (CpAM/DMSO %) at 10 μM
One number for each entry, in %.

For the 5 compounds below, give their activity at 10 µM values.
1. Cc1ccc2c(c1)C(=O)Nc1cc(C(=O)NCCC3CCCCC3)ccc1S2
2. CN1c2ccc(C(=O)NCc3cncnc3)cc2NC(=O)c2ccccc21
3. O=C(Nc1ccncc1)c1ccc2c(c1)NC(=O)c1ccccc1S2(=O)=O
4. O=C(Nc1cncs1)c1ccc2c(c1)NC(=O)c1cc(F)ccc1S2
5. O=C(Nc1cccc(-c2ccccc2)c1)c1ccc2c(c1)NC(=O)c1cc(F)ccc1S2

1: 11; 2: 1; 3: 35; 4: 87; 5: 20

----------
Assignment: determine reported AD38 Viability Normalized Result (CPAM/DMSO %) at 10 μM for the given compounds.
# Tested on: AD38 cells
# TEST METHOD NOTES: Viability of AD38 cells (Promega CellTiter-Glo) at the end of compound treatment
# Type: cell-based
# STUDY CONDITIONS: 10 μM compound, 6 days, luminescence normalized against DMSO control wells (controls being 100%)
Units required after the number.

O=C(NCCOc1ccccc1)c1ccc2c(c1)NC(=O)c1ccccc1S2 [Compound 1192]    81%
O=C(NCc1scnc1-c1ccccc1)c1ccc2c(c1)NC(=O)c1ccccc1S2 [Compound 1605]    106%
O=C(NCC1CCCCC1)c1ccc2c(c1)NC(=O)c1ccccc1S2 [Compound 1169]    107%
O=C(NC(Cc1nnc[nH]1)c1ccccc1)c1ccc2c(c1)NC(=O)c1ccccc1S2 (centres unmarked) [Compound 1552]    93%

// next item, AD38 Viability Normalized Result (CPAM/DMSO %) at 10 μM requested
// recorded AD38 Viability Normalized Result (CPAM/DMSO %) at 10 μM for O=C(NCc1cnc(-c2ccccc2)nc1)c1ccc2c(c1)NC(=O)c1cc(F)ccc1S2 [Compound 1315] : 103%

----------
Give measured activity at 10 µM for each item. Keep answers brief.
# Test system: HBV viral production in AD38 cells
# TEST METHOD NOTES: Viral load production in AD38 cells by quantitative PCR of the HBV core sequence in supernatant
# Format: cell-based
# STUDY CONDITIONS: Hepatitis B virus, 144 h; 10 μM compound, 6 days at 37° C., viral load in supernatant compared against DMSO control wells; read-out: AD38 Viral Load (CpAM/DMSO %) at 10 μM
Numbers only, in %.

Example molecules with recorded activity at 10 µM:
O=C(NCCc1ccc(N2CCCCC2)cc1)c1ccc2c(c1)NC(=O)c1ccccc1S2 [Compound 1121]    6
O=C(NCCc1cccnc1)c1ccc2c(c1)NC(=O)c1ccc(F)cc1S2 [Compound 1377]    5
CC(CNC(=O)c1ccc2c(c1)NC(=O)c1ccccc1S2)c1ccccc1 (centres unmarked) [Compound 1212]    1
O=C(NCCC1CCNCC1)c1ccc2c(c1)NC(=O)c1ccccc1S2 [Compound 1244]    14
O=C(NCc1ccc(OC(F)(F)F)cc1)c1ccc2c(c1)NC(=O)c1ccccc1S2 [Compound 1162]    61
CCOc1cccc(CCNC(=O)c2ccc3c(c2)NC(=O)c2ccccc2S3)c1 [Compound 1157]    1
O=C(NCCc1cnco1)c1ccc2c(c1)NC(=O)c1cccc(F)c1S2 [Compound 1487]    15

Turning now to a further molecule:
Summary for this molecule, O=C(NCc1scnc1Cl)c1ccc2c(c1)NC(=O)c1ccccc1S2 [Compound 1632] : activity at 10 µM is 2

----------
# Tested on: HBV viral production in AD38 cells
# TEST METHOD NOTES: Viral load production in AD38 cells by quantitative PCR of the HBV core sequence in supernatant
# Type: cell-based
# STUDY CONDITIONS: Hepatitis B virus, 144 h; 10 μM compound, 6 days at 37° C., viral load in supernatant compared against DMSO control wells; read-out: AD38 Viral Load (CpAM/DMSO %) at 10 μM
OBSERVATION TYPE: activity at 10 µM (%)
One number for each entry, in %.

Below, 8 compounds whose answers are already recorded.
O=C(NCCc1ccc(-n2nccn2)cc1)c1ccc2c(c1)NC(=O)c1ccccc1S2    1
O=C(Nc1cccc(-c2cccnc2)c1)c1ccc2c(c1)NC(=O)c1cc(F)ccc1S2    34
Cc1ccc(CNC(=O)c2ccc3c(c2)NC(=O)c2ccccc2S3)cc1    27
O=C(NCCN1CCOCC1)c1ccc2c(c1)NC(=O)c1ccccc1S2    30
COCCNC(=O)c1ccc2c(c1)NC(=O)c1ccccc1S2    49
O=C(NCCc1ccc(-c2ccccc2)cc1)c1ccc2c(c1)NC(=O)c1ccccc1S2(=O)=O    0
CCc1ccc(CNC(=O)c2ccc3c(c2)NC(=O)c2ccccc2S3)cc1    4
O=C(NCc1cnco1)c1ccc2c(c1)NC(=O)c1ccccc1[S+]2[O-] (centres unmarked)    40

Give activity at 10 µM for each listed item.
1. O=C(NCc1ccc(F)cc1)c1ccc2c(c1)NC(=O)c1ccccc1S2
2. O=C(NCc1cccnc1)c1ccc2c(c1)NC(=O)c1ccccc1S2
3. CCCCNC(=O)c1ccc2c(c1)NC(=O)c1ccccc1S2
4. O=C(NCCc1cncnc1)c1ccc2c(c1)NC(=O)c1ccc(F)cc1S2

1: 1; 2: 1; 3: 62; 4: 19

Please state activity at 10 µM for every compound in the list that follows.
1. O=C(NCc1ccc(-c2cncnc2)cc1)c1ccc2c(c1)NC(=O)c1ccccc1S2(=O)=O
2. O=C(NCCC1CCCCC1)c1ccc2c(c1)NC(=O)c1ccncc1S2

1: 5; 2: 4

----------
# Test system: AD38 cells
# TEST METHOD NOTES: Viability of AD38 cells (Promega CellTiter-Glo) at the end of compound treatment
# Format: cell-based
# STUDY CONDITIONS: 10 μM compound, 6 days, luminescence normalized against DMSO control wells (controls being 100%)
Exercise: for every item that follows, state its recorded AD38 Viability Normalized Result (CPAM/DMSO %) at 10 μM.
Numbers only, in %.

Solved cases (10 shown):
O=C(NCCc1cccnc1)c1ccc2c(c1)NC(=O)c1c(F)cccc1S2 [Compound 1555]    81
O=C(Nc1ccc(F)cn1)c1ccc2c(c1)NC(=O)c1cc(F)ccc1S2 [Compound 1336]    90
O=C(NCC1CCCC1)c1ccc2c(c1)NC(=O)c1ccccc1S2 [Compound 1193]    90
O=C(Nc1ccncc1)c1ccc2c(c1)NC(=O)c1ccccc1S2 [Compound 1444]    65
O=C(NCCC1CCC(F)CC1)c1ccc2c(c1)NC(=O)c1ccccc1S2 (centres unmarked) [Compound 1217]    37
CN1c2ccc(C(=O)NCc3cccnc3)cc2NC(=O)c2ccccc21 [Compound 1499]    84
O=C(NCc1cncnc1)c1ccc2c(c1)NC(=O)c1ccccc1S2(=O)=O [Compound 1446]    84
O=C1Nc2cc(S(=O)(=O)Nc3ccc(F)cc3F)ccc2Sc2ccccc21 [Compound 1526]    92
O=C1Nc2cc(S(=O)(=O)NCc3cncnc3)ccc2Sc2ccccc21 [Compound 1473]    97
O=C(NCc1cncnc1)c1ccc2c(c1)NC(=O)c1cccc(F)c1S2 [Compound 1390]    92

// next entry
So, CN(C)S(=O)(=O)c1ccc(CCCNC(=O)c2ccc3c(c2)NC(=O)c2ccc(F)cc2S3)cc1 [Compound 1398] ? Its AD38 Viability Normalized Result (CPAM/DMSO %) at 10 μM was 60

----------
# Tested on: AD38 cells
# TEST METHOD NOTES: Viability of AD38 cells (Promega CellTiter-Glo) at the end of compound treatment
# Type: cell-based
# STUDY CONDITIONS: 10 μM compound, 6 days, luminescence normalized against DMSO control wells (controls being 100%)
# Experimental: Example 56: Assay Measuring Activity of Compounds on Viral Production in and on Viability of AD38 Cells AD38 cells were then re-suspended with 10 mL of Treatment Medium and counted. […] At the end of compound treatment period cell viability was assessed using a Promega CellTiter-Glo protocol. […]
I'd be grateful if you could share measured AD38 Viability Normalized Result (CPAM/DMSO %) at 10 μM for these entries.
One number for each entry, in %.

These recorded examples may help you get a feel for the data.
O=C(NCc1cncnc1)c1ccc2c(c1)NC(=O)c1ccc(F)cc1S2    94
O=C(Nc1cccc(-c2ccccc2)c1)c1ccc2c(c1)NC(=O)c1ccccc1S2(=O)=O    49
O=C(NCc1cccc(C(F)(F)F)c1)c1ccc2c(c1)NC(=O)c1ccccc1S2    119
O=C1Nc2cc(S(=O)(=O)Nc3cncnc3)ccc2Sc2ccccc21    85
O=C(NCc1cncs1)c1ccc2c(c1)NC(=O)c1ccccc1S2    101

# per-item lookup of AD38 Viability Normalized Result (CPAM/DMSO %) at 10 μM; items listed below
1. O=C(Nc1cccc(-c2ccccc2)c1)c1ccc2c(c1)NC(=O)c1ccc(F)cc1S2
2. O=C(NCCc1cnco1)c1ccc2c(c1)NC(=O)c1ccccc1S2(=O)=O
3. O=C(NCc1cccnc1)c1ccc2c(c1)NC(=O)c1ccccc1N2Cc1ccccc1

1: 72; 2: 115; 3: 80

Hey, quick one: what's AD38 Viability Normalized Result (CPAM/DMSO %) at 10 μM for each of these?
1. O=C(NCc1cncs1)c1ccc2c(c1)NC(=O)c1ccccc1[SH]2O (centres unmarked) [Compound 1536]
2. O=C1Nc2c(cc(F)c(C(=O)NCCc3cncnc3)c2F)Sc2ccccc21
3. CNc1ccccc1CNC(=O)c1ccc2c(c1)NC(=O)c1ccccc1S2
4. CN(C)C(=O)c1ccc2c(c1)Sc1ccc(C(=O)NCCC3CCCCC3)cc1NC2=O
5. CC(C)(CNC(=O)c1ccc2c(c1)NC(=O)c1ccccc1S2)c1ccccc1

120
89
106
88
55

Look up AD38 Viability Normalized Result (CPAM/DMSO %) at 10 μM for the entries below, preserving their order.
1. NS(=O)(=O)c1ccc(CCNC(=O)c2ccc3c(c2)NC(=O)c2ccccc2S3)cc1
2. Cc1c(C(=O)NCCc2cccnc2)ccc2c1NC(=O)c1ccccc1S2

[107, 92]

Report AD38 Viability Normalized Result (CPAM/DMSO %) at 10 μM for each item below.
1. O=C(Nc1cccc(-c2cccnc2)c1)c1ccc2c(c1)NC(=O)c1ccccc1S2(=O)=O
2. O=C(NCCc1ccc(-c2ccccc2)cc1)c1ccc2c(c1)NC(=O)c1ccccc1S2(=O)=O

1. 95
2. 44
